biological target: DRB1*0301 (DR3w17) (Homo sapiens, UniProt P01903+P01911, A100K/A102G/A103R/A169T/F55Y/I96L/K41T/L162R/M171V/P40S/Q125H/Q178H/Q39Y/R42S/S66N/T106N/T262R/W38E/Y61H); construct: used as sources of human HLA class II molecules; endogenous in cells; host or cells: MAT (EBV-transformed homozygous B cell line); assay: Class II peptide-binding assay, DR3 (pH 4.5); settings: read-out: In IC50 Format DR3 nM; Table VIII; values in parentheses read as lower bounds;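 also: unlabeled peptide competing with a radiolabeled probe peptide for binding to affinity-purified HLA-DR3, IC50 regarded as an approximation of Kd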
Sequence (P01903 26-254, other chains not shown): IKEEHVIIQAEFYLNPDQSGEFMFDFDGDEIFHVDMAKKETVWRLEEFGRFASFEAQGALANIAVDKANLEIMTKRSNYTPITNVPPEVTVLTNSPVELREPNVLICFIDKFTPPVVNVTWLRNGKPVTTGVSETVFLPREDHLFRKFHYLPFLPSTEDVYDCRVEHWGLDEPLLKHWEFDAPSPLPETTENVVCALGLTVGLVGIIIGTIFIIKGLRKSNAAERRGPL
Peptide text beside a SMILES is read from it.
reported.endpoint: IC50

Solved cases below.
• CC(C)C[C@H](NC(=O)[C@H](CC(=O)O)NC(=O)[C@@H](NC(=O)[C@H](CS)NC(=O)[C@H](CO)NC(=O)[C@@H](N)Cc1c[nH]cn1)C(C)C)C(=O)N[C@@H](CC(=O)O)C(=O)N[C@@H](CC(=O)O)C(=O)N[C@@H](CCCCN)C(=O)NCC(=O)N[C@@H](CS)C(=O)N1CCC[C@H]1C(=O)N[C@@H](C)C(=O)N[C@@H](CCC(=O)O)C(=O)N[C@@H](CCC(N)=O)C(=O)O [Peptide 39.0359] = > 111 µM
• CC[C@H](C)[C@H](N)C(=O)N[C@@H](Cc1c[nH]c2ccccc12)C(=O)N[C@@H](CCCCN)C(=O)N[C@@H](Cc1ccccc1)C(=O)N1CCC[C@H]1C(=O)N[C@@H](CC(=O)O)C(=O)N[C@@H](CCC(=O)O)C(=O)N[C@@H](CCC(=O)O)C(=O)NCC(=O)N[C@@H](C)C(=O)N[C@@H](CS)C(=O)N[C@@H](CCC(N)=O)C(=O)N1CCC[C@H]1C(=O)N[C@@H](CS)C(=O)N1CCC[C@H]1C(=O)O [Peptide 39.0358] (H-IWKFPDEEGACQPCP-OH) = > 111 µM

Below: the item to evaluate.
Reported IC50 for CC(C)C[C@H](NC(=O)[C@H](Cc1ccc(O)cc1)NC(=O)[C@H](CC(N)=O)NC(=O)[C@@H](N)Cc1ccc(O)cc1)C(=O)N[C@@H](CO)C(=O)N[C@H](C(=O)N[C@@H](CC(=O)O)C(=O)N[C@H](C(=O)NCC(=O)N[C@@H](CO)C(=O)N[C@@H](CS)C(=O)N[C@H](C(=O)N[C@@H](CC(C)C)C(=O)N[C@H](C(=O)N[C@@H](CS)C(=O)O)C(C)C)[C@@H](C)O)C(C)C)[C@@H](C)O [Peptide 39.0346] (H-YNYLSTDVGSCTLVC-OH) : what is it?
50.8 µM

###

biological target: DRB1*0701 (DR7) (Homo sapiens, UniProt P01903+P01911, A100R/A102G/A103Q/D57E/D86V/E43K/F76Y/K127E/L162R/M171V/P40G/Q125H/Q99D/R33Q/R42Y/R54Q/S133A/S66F/T210M/V115G/Y107V/Y59L/Y89S); test: Class II peptide-binding assay, DR7; conditions: read-out: DR7 nM; Table VIII, In IC50 Format;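 also: unlabeled peptides compete with an iodinated probe peptide for binding to affinity-purified HLA-DR at neutral pH, DR amount titered to bind a small tracer fraction, IC50 approximating Kd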
Square brackets hold non-standard residues; d marks the D form. Peptide text beside a SMILES is read from it.
reported.endpoint: IC50 (nM)
One number for each entry, in nM.

Reported IC50 for C[C@H](NC(=O)[C@H](N)Cc1ccc(O)cc1)C(=O)N[C@@H](C)C(=O)N[C@@H](Cc1ccccc1)C(=O)N[C@@H](C)C(=O)N[C@@H](C)C(=O)N[C@@H](C)C(=O)N[C@@H](C)C(=O)N1CCC[C@H]1C(=O)N[C@@H](CCCCN)C(=O)N[C@@H](C)C(=O)N[C@@H](C)C(=O)N[C@@H](C)C(=O)N[C@H](C)C(N)=O [Peptide 828.06] (H-[dY]AAFAAAAPKAAA[dA]-NH2) : what is it?
1920

###

target: DRB1*0101 (DR1) (Homo sapiens, UniProt P01903+P01911, A100R/D57E/F55L/F60I/F76Y/I96L/L162R/M171V/P40L/Q125E/R42F/V115G/Y59C); construct: used as sources of human HLA class II molecules; endogenous in cells; host or cells: LG2 (EBV-transformed homozygous B cell line); test: Class II peptide-binding assay, DR1; conditions: read-out: DR1 nM; Table VIII, In IC50 Format;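 also: competition assay: unlabeled test peptides inhibit binding of a radiolabeled probe peptide to purified DR, with half-maximal inhibition taken as an approximate dissociation constant Kd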
Square brackets hold non-standard residues; d marks the D form. Peptide text beside a SMILES is read from it.
Please respond with reported IC50 for every item in the list.
Answers are plain numbers, in nM.

- CC(C)C[C@H](NC(=O)[C@H](CCCCN)NC(=O)[C@H](CC(C)C)NC(=O)[C@@H](NC(=O)[C@H](CC(N)=O)NC(=O)[C@H](CCC(N)=O)NC(=O)[C@H](CCCCN)NC(=O)[C@@H](NC(=O)[C@H](Cc1ccc(O)cc1)NC(=O)[C@H](CCCCN)NC(=O)[C@@H]1CCCN1C(=O)[C@@H](N)CS)C(C)C)[C@@H](C)O)C(=O)N[C@@H](C)C(=O)N[C@H](C(=O)NCC(=O)O)[C@@H](C)O [Peptide 852.01]: 31.6
- C[C@H](NC(=O)[C@H](C)NC(=O)[C@H](Cc1ccccc1)NC(=O)[C@H](C)NC(=O)[C@@H](C)N)C(=O)N[C@@H](C)C(=O)N[C@@H](C)C(=O)N1CCC[C@H]1C(=O)N[C@@H](CCCCN)C(=O)N[C@@H](C)C(=O)N[C@@H](C)C(=O)N[C@@H](C)C(=O)N[C@H](C)C(N)=O [Peptide 828.05] (H-[dA]AFAAAAPKAAA[dA]-NH2): 1.9

Below: the item to evaluate.
Reported IC50 for CC(C)C[C@H](NC(=O)[C@@H](NC(=O)[C@H](C)NC(=O)[C@H](C)NC(=O)[C@H](C)NC(=O)[C@H](CCCCN)NC(=O)[C@H](Cc1ccccc1)NC(=O)[C@H](C)NC(=O)[C@@H](C)N)[C@@H](C)O)C(=O)N[C@@H](CCCCN)C(=O)N[C@@H](C)C(=O)N[C@@H](C)C(=O)N[C@H](C)C(N)=O [Peptide 871.08] (H-[dA]AFKAAATLKAA[dA]-NH2) : what is it?
1.8

###

biological target: DRB1*1201 (DR5w12) (Homo sapiens, UniProt P01903+P01911, A100R/A169T/D57E/D86V/F55L/H45Y/K41T/L162R/M171V/P40S/Q125H/Q178H/Q39Y/Q99D/R42G/S66L/T262R/V114A/V67L/W38E/Y59H/Y61H/Y89S); construct: used as sources of human HLA class II molecules; endogenous in cells; host or cells: Herluf (EBV-transformed homozygous B cell line); test: Class II peptide-binding assay, DR5w12; details: Table V A) Non Predictions; read-out: Binding Capacity DR5w12
Ends that are not written are not given here.
reported.endpoint: pIC50
Numbers only, as −log10 of the molar value.

Reported pIC50 for GPPTALRSFGFAFGYM [Peptide 1136.29] : what is it?
6.00

###

target: DRB5*0101 (DR2w2a) (Homo sapiens, UniProt P01903+Q30154); construct: used as sources of human HLA class II molecules; endogenous in cells; host or cells: GM3107 (EBV-transformed homozygous B cell line); assay: Class II peptide-binding assay, DR2w2a (DR2w2B2); settings: read-out: DR2w2B2 nM; Table VIII, In IC50 Format;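 also: competitive binding assay: unlabeled peptide inhibiting binding of a radiolabeled probe peptide to purified DR molecules at pH 7.0, IC50 approximating Kd, lower means stronger binding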
Square brackets hold non-standard residues; d marks the D form. Peptide text beside a SMILES is read from it.
reported.endpoint: IC50 (nM)
Answers are plain numbers, in nM.

- C[C@H](NC(=O)[C@H](C)NC(=O)[C@H](Cc1ccccc1)NC(=O)[C@H](C)NC(=O)[C@@H](C)N)C(=O)N[C@@H](C)C(=O)N[C@@H](C)C(=O)N1CCC[C@H]1C(=O)N[C@@H](CCCCN)C(=O)N[C@@H](C)C(=O)N[C@@H](C)C(=O)N[C@@H](C)C(=O)N[C@H](C)C(N)=O [Peptide 828.05] (H-[dA]AFAAAAPKAAA[dA]-NH2): 15.6
- CC(C)C[C@H](NC(=O)[C@@H](NC(=O)[C@H](C)NC(=O)[C@H](C)NC(=O)[C@H](C)NC(=O)[C@H](CCCCN)NC(=O)[C@H](Cc1ccccc1)NC(=O)[C@H](C)NC(=O)[C@@H](C)N)[C@@H](C)O)C(=O)N[C@@H](CCCCN)C(=O)N[C@@H](C)C(=O)N[C@@H](C)C(=O)N[C@H](C)C(N)=O [Peptide 871.08] (H-[dA]AFKAAATLKAA[dA]-NH2): 3.9

Here are 2 compounds. What values of IC50 were reported for them?
1. C[C@H](NC(=O)[C@H](N)Cc1ccc(O)cc1)C(=O)N[C@@H](C)C(=O)N[C@@H](Cc1ccccc1)C(=O)N[C@@H](C)C(=O)N[C@@H](C)C(=O)N[C@@H](C)C(=O)N[C@@H](C)C(=O)N[C@H](C(=O)N[C@@H](CCCCN)C(=O)N[C@@H](C)C(=O)N[C@@H](C)C(=O)N[C@@H](C)C(=O)N[C@H](C)C(N)=O)[C@@H](C)O [Peptide 828.10] (H-[dY]AAFAAAATKAAA[dA]-NH2)
2. CC(C)C[C@H](NC(=O)[C@@H](NC(=O)[C@H](C)NC(=O)[C@H](C)NC(=O)[C@H](CCCCN)NC(=O)[C@H](C)NC(=O)[C@H](Cc1ccccc1)NC(=O)[C@H](CCCCN)NC(=O)[C@@H](C)N)[C@@H](C)O)C(=O)N[C@@H](CCCCN)C(=O)N[C@@H](C)C(=O)N[C@@H](C)C(=O)N[C@H](C)C(N)=O [Peptide 871.01] (H-[dA]KFAKAATLKAA[dA]-NH2)

19.8
14.7

Reference source: patent EP1388586A2
